Recorded Ki for the following compounds
molecular target: Dimer of Gag-Pol polyprotein [489-587] (Human immunodeficiency virus 1, UniProt P12497); construct: 489-587; assay: Protease Inhibition Assay; conditions: pH 4.7; 30 °C
The reply should contain only the number, in nM.

Examples from the recorded data:
INSERT INTO measurements (chemical_smiles, number) VALUES
  ('CC(C)[C@H](NC(=O)N(C)Cc1ccccn1)C(=O)N[C@@H](Cc1ccccc1)[C@H](O)[C@@H](O)[C@H](Cc1ccccc1)NC(=O)[C@@H](NC(=O)N(C)Cc1ccccn1)C(C)C', 0.011),
  ('CC(C)[C@H](NC(=O)N(C)Cc1ccccn1)C(=O)N[C@@H](Cc1ccccc1)C[C@@H](O)[C@H](Cc1ccccc1)NC(=O)[C@@H](NC(=O)N(C)Cc1ccccn1)C(C)C', 0.004),
  ('CC(C)[C@H](NC(=O)N(C)Cc1ccccn1)C(=O)N[C@@H](Cc1ccccc1)[C@@H](O)[C@H](O)[C@H](Cc1ccccc1)NC(=O)[C@@H](NC(=O)N(C)Cc1ccccn1)C(C)C', 0.112);

Now let's try a different one.
Input line: Lab note: Dimer of Gag-Pol polyprotein [489-587] (Human immunodeficiency virus 1, UniProt P12497) assay, enter Ki for `CC(C)[C@H](NC(=O)N(C)Cc1ccccn1)C(=O)N[C@@H](Cc1ccccc1)[C@H](O)[C@H](O)[C@H](Cc1ccccc1)NC(=O)[C@@H](NC(=O)N(C)Cc1ccccn1)C(C)C` here
Output line: 0.012
